- target_desc: Somatostatin receptor type 3 (Homo sapiens, UniProt P32745)
- Sequence (P32745 whole entry): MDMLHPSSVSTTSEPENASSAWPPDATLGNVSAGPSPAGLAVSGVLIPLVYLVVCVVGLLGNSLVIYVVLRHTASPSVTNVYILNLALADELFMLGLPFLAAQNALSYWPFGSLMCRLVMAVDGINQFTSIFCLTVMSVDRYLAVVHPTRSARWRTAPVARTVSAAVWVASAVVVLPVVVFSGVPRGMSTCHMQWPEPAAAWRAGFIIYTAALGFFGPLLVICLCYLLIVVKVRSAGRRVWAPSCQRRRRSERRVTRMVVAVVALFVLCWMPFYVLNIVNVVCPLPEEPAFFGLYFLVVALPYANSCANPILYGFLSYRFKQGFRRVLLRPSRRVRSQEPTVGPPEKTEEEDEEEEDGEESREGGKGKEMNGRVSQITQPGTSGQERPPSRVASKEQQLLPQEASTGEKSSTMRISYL
- assay_explanation: Displacement of [125I]-[Leu8, DTrp22, Tyr25]-somatostatin-28 from human recombinant sst3 receptor expressed in chinese hamster CCL39 cells
readout_type: IC50 (nM)

>>> df
                            chemical_string  readout_type  quantity_unit  val
0  NCCCC[C@@H](C(=O)NCc1ccccc1)N1Cc2[nH]c3ccccc3c2C[C@@H](NC(=O)c2ccc(-c3ccccc3)cc2)C1=O          IC50             nM   54
1  NCCCC[C@@H](C(=O)NCc1ccccc1)N1Cc2[nH]c3ccccc3c2C[C@@H](NC(=O)N2CCN(S(=O)(=O)c3ccccc3)CC2)C1=O          IC50             nM  260
2  C[C@@H](NC(=O)[C@H](CCCCN)N1Cc2[nH]c3ccccc3c2C[C@@H](NC(=O)Cc2ccccc2)C1=O)c1ccccc1          IC50             nM  403
3  NCCCC[C@@H](C(=O)NCc1ccccc1)N1Cc2[nH]c3ccccc3c2C[C@@H](NC(=O)C2CCN(C(=O)c3ccccc3)CC2)C1=O          IC50             nM  119
4  COC(=O)[C@H](CCCCN)N1Cc2[nH]c3ccccc3c2C[C@@H](NC(=O)Cc2ccccc2)C1=O          IC50             nM  400
5  NCCCC[C@@H](C(=O)NCc1cccc2ccccc12)N1Cc2[nH]c3ccccc3c2C[C@@H](NC(=O)Cc2ccccc2)C1=O          IC50             nM  105
6  NCCCC[C@@H](C(=O)NCCc1ccccc1)N1Cc2[nH]c3ccccc3c2C[C@@H](NC(=O)Cc2ccccc2)C1=O          IC50             nM   50

###

Listing of entries alongside the reported pIC50.
- target_desc: Somatostatin receptor type 4 (Homo sapiens, UniProt P31391)
- Sequence (P31391 whole entry): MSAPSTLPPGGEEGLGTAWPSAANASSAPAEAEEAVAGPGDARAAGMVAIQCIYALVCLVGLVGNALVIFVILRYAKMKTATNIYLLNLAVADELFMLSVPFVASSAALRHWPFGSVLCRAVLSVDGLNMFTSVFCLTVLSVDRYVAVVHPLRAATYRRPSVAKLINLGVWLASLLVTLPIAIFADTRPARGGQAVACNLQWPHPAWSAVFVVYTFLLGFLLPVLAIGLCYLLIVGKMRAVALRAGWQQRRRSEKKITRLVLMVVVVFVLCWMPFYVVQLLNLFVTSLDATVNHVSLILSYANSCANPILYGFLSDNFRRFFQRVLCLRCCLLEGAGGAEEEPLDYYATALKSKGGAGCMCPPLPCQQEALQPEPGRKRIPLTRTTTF
- assay_explanation: Displacement of [125I]-[Leu8, DTrp22, Tyr25]-somatostatin-28 from human recombinant sst4 receptor expressed in chinese hamster CCL39 cells
pIC50: −log10 of the molar value.
readout_type: pIC50

                             chemical_string                               target_desc  readout_type   val
 0  NCCCC[C@@H](C(=O)NCc1ccccc1)N1Cc2[nH]c3ccccc3c2C[C@@H](NC(=O)c2ccc(-c3ccccc3)cc2)C1=O  Somatostatin receptor type 4 (Homo sapiens, UniProt P31391)         pIC50  6.79
 1  COC(=O)[C@H](CCCCN)N1Cc2[nH]c3ccccc3c2C[C@@H](NC(=O)Cc2ccccc2)C1=O  Somatostatin receptor type 4 (Homo sapiens, UniProt P31391)         pIC50  8.62
 2  NCCCC[C@@H](C(=O)NCc1ccccc1)N1Cc2[nH]c3ccccc3c2C[C@@H](NC(=O)N2CCC(n3c(=O)[nH]c4ccccc43)CC2)C1=O  Somatostatin receptor type 4 (Homo sapiens, UniProt P31391)         pIC50  8.36
 3  CC(=O)N[C@@H]1Cc2c([nH]c3ccccc23)CN([C@@H](CCCCN)C(=O)NCc2ccccc2)C1=O  Somatostatin receptor type 4 (Homo sapiens, UniProt P31391)         pIC50  8.15
 4  NCCCC[C@@H](C(=O)NCc1ccccc1)N1Cc2[nH]c3ccccc3c2C[C@@H](NC(=O)C(c2ccccc2)c2ccccc2)C1=O  Somatostatin receptor type 4 (Homo sapiens, UniProt P31391)         pIC50  7.85
 5  NCCCC[C@@H](C(=O)NCc1ccccc1)N1Cc2[nH]c3ccccc3c2C[C@@H](NC(=O)N2CCN(S(=O)(=O)c3ccccc3)CC2)C1=O  Somatostatin receptor type 4 (Homo sapiens, UniProt P31391)         pIC50  7.23
 6  CC(=O)N[C@@H]1Cc2c([nH]c3ccccc23)CN([C@@H](CCCCN)C(=O)NCCc2ccccc2)C1=O  Somatostatin receptor type 4 (Homo sapiens, UniProt P31391)         pIC50  8.15
 7  NCCCC[C@@H](C(=O)NCc1ccccc1)N1Cc2[nH]c3ccccc3c2C[C@@H](NC(=O)C2CCN(C(=O)c3ccccc3)CC2)C1=O  Somatostatin receptor type 4 (Homo sapiens, UniProt P31391)         pIC50  8.16
 8  C[C@H](NC(=O)[C@H](CCCCN)N1Cc2[nH]c3ccccc3c2C[C@@H](NC(=O)Cc2ccccc2)C1=O)c1ccccc1  Somatostatin receptor type 4 (Homo sapiens, UniProt P31391)         pIC50  9.00
 9  NCCCC[C@H](C(=O)NCc1ccccc1)N1Cc2[nH]c3ccccc3c2C[C@@H](NC(=O)Cc2ccccc2)C1=O  Somatostatin receptor type 4 (Homo sapiens, UniProt P31391)         pIC50  7.25
10  NCCCC[C@@H](C(=O)NCc1ccccc1)N1Cc2[nH]c3ccccc3c2C[C@@H](NC(=O)CCc2ccccc2)C1=O  Somatostatin receptor type 4 (Homo sapiens, UniProt P31391)         pIC50  8.09
11  NCCCC[C@@H](C(=O)NCc1ccccc1)N1Cc2[nH]c3ccccc3c2C[C@@H](NC(=O)c2ccccc2)C1=O  Somatostatin receptor type 4 (Homo sapiens, UniProt P31391)         pIC50  8.89
12  NCCCC[C@@H](C(=O)NCc1cccc2ccccc12)N1Cc2[nH]c3ccccc3c2C[C@@H](NC(=O)Cc2ccccc2)C1=O  Somatostatin receptor type 4 (Homo sapiens, UniProt P31391)         pIC50  7.77
13  C[C@@H](NC(=O)[C@H](CCCCN)N1Cc2[nH]c3ccccc3c2C[C@@H](NC(=O)Cc2ccccc2)C1=O)c1ccccc1  Somatostatin receptor type 4 (Homo sapiens, UniProt P31391)         pIC50  7.85
14  NCCCC[C@@H](C(=O)NCCc1ccccc1)N1Cc2[nH]c3ccccc3c2C[C@@H](NC(=O)Cc2ccccc2)C1=O  Somatostatin receptor type 4 (Homo sapiens, UniProt P31391)         pIC50  8.62

###

Listing of entries alongside the reported IC50.
- target_desc: Somatostatin receptor type 1 (Homo sapiens)
- Sequence (P30872 whole entry): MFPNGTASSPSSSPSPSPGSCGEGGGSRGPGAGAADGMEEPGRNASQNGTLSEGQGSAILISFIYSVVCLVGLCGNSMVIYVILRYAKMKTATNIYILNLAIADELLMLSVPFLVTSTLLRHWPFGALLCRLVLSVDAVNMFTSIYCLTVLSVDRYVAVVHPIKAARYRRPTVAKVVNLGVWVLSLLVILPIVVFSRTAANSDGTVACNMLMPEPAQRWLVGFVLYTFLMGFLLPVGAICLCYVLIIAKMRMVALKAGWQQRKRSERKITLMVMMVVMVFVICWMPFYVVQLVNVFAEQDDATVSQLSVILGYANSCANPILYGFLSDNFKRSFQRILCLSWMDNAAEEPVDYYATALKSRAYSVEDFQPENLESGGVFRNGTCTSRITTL
- assay_explanation: Displacement of [125I]-[Leu8, DTrp22, Tyr25]-somatostatin-28 from human recombinant sst1 receptor expressed in chinese hamster CCL39 cells
readout_type: IC50 (nM)

                             chemical_string                               target_desc  readout_type  value_qualifier   val
 0  NCCCC[C@@H](C(=O)NCc1ccccc1)N1Cc2[nH]c3ccccc3c2C[C@@H](NC(=O)c2ccccc2)C1=O  Somatostatin receptor type 1 (Homo sapiens)          IC50                =    27
 1  NCCCC[C@@H](C(=O)NCc1ccccc1)N1Cc2[nH]c3ccccc3c2C[C@@H](NC(=O)C(c2ccccc2)c2ccccc2)C1=O  Somatostatin receptor type 1 (Homo sapiens)          IC50                =   247
 2  CC(=O)N[C@@H]1Cc2c([nH]c3ccccc23)CN([C@@H](CCCCN)C(=O)NCCc2ccccc2)C1=O  Somatostatin receptor type 1 (Homo sapiens)          IC50                =   105
 3  C[C@@H](NC(=O)[C@H](CCCCN)N1Cc2[nH]c3ccccc3c2C[C@@H](NC(=O)Cc2ccccc2)C1=O)c1ccccc1  Somatostatin receptor type 1 (Homo sapiens)          IC50                =   630
 4  NCCCC[C@@H](C(=O)NCc1ccccc1)N1Cc2[nH]c3ccccc3c2C[C@@H](NC(=O)N2CCC3(CCc4ccccc43)CC2)C1=O  Somatostatin receptor type 1 (Homo sapiens)          IC50                =   379
 5  CC(=O)N[C@@H]1Cc2c([nH]c3ccccc23)CN([C@@H](CCCCN)C(=O)NCc2ccccc2)C1=O  Somatostatin receptor type 1 (Homo sapiens)          IC50                =   253
 6  CS(=O)(=O)N1CC2(CCN(C(=O)N[C@@H]3Cc4c([nH]c5ccccc45)CN([C@@H](CCCCN)C(=O)NCc4ccccc4)C3=O)CC2)c2ccccc21  Somatostatin receptor type 1 (Homo sapiens)          IC50                =   837
 7  NCCCC[C@@H](C(=O)NCc1ccccc1)N1Cc2[nH]c3ccccc3c2C[C@@H](NC(=O)N2CCN(S(=O)(=O)c3ccccc3)CC2)C1=O  Somatostatin receptor type 1 (Homo sapiens)          IC50                =   372
 8  NCCCC[C@@H](C(=O)NCc1ccccc1)N1Cc2[nH]c3ccccc3c2C[C@@H](NC(=O)C2CCN(C(=O)c3ccccc3)CC2)C1=O  Somatostatin receptor type 1 (Homo sapiens)          IC50                =    89
 9  COC(=O)[C@H](CCCCN)N1Cc2[nH]c3ccccc3c2C[C@@H](NC(=O)Cc2ccccc2)C1=O  Somatostatin receptor type 1 (Homo sapiens)          IC50                =   962
10  NCCCC[C@@H](C(=O)NCc1cccc2ccccc12)N1Cc2[nH]c3ccccc3c2C[C@@H](NC(=O)Cc2ccccc2)C1=O  Somatostatin receptor type 1 (Homo sapiens)          IC50                =   387
11  NCCCC[C@@H](C(=O)NCc1ccccc1)N1Cc2[nH]c3ccccc3c2C[C@@H](NC(=O)N2CCC(n3c(=O)[nH]c4ccccc43)CC2)C1=O  Somatostatin receptor type 1 (Homo sapiens)          IC50                =    76
12  NCCCC[C@H](C(=O)NCc1ccccc1)N1Cc2[nH]c3ccccc3c2C[C@@H](NC(=O)Cc2ccccc2)C1=O  Somatostatin receptor type 1 (Homo sapiens)          IC50                >  1000
13  NCCCC[C@@H](C(=O)NCc1ccccc1)N1Cc2[nH]c3ccccc3c2C[C@@H](NC(=O)c2ccc(Cl)cc2)C1=O  Somatostatin receptor type 1 (Homo sapiens)          IC50                =    38
14  NCCCC[C@@H](C(=O)NCc1ccccc1)N1Cc2[nH]c3ccccc3c2C[C@@H](NC(=O)CCc2ccccc2)C1=O  Somatostatin receptor type 1 (Homo sapiens)          IC50                =    54
15  C[C@H](NC(=O)[C@H](CCCCN)N1Cc2[nH]c3ccccc3c2C[C@@H](NC(=O)Cc2ccccc2)C1=O)c1ccccc1  Somatostatin receptor type 1 (Homo sapiens)          IC50                =   183
16  NCCCC[C@@H](C(=O)NCc1ccccc1)N1Cc2[nH]c3ccccc3c2C[C@@H](NC(=O)c2ccc(-c3ccccc3)cc2)C1=O  Somatostatin receptor type 1 (Homo sapiens)          IC50                >  1000
17  NCCCC[C@@H](C(=O)NCCc1ccccc1)N1Cc2[nH]c3ccccc3c2C[C@@H](NC(=O)Cc2ccccc2)C1=O  Somatostatin receptor type 1 (Homo sapiens)          IC50                =    75

The reported measurements were obtained from ChEMBL document CHEMBL1139341.
